Test system: E. faecalis (ATCC 29212)
Test: microbe, parasite or virus in culture
Format: cell-based
Conditions: Enterococcus faecalis, ATCC29212; 16 h at 37 °C; read-out: MIC E. faecalis
quantity-measured: MIC (µM)
# output: bare number, implied unit µM

# smi, result
data = [
    ("CCCCCCCCCCCCO[C@H]1O[C@H](CO)C[C@H](O)[C@H]1O", 51),
]

// lookup MIC | system=E. faecalis (ATCC 29212) | key= `CCCCCCCCCCCCO[C@@H]1C[C@@H](O)[C@H](O)[C@@H](CO)O1`
12

* * *

Measured IC50 at 24 h by item
Test: in vitro
Conditions: human

Illustrative cases are given below, each with its answer.
# molecule, result
rows = [
    ("CCCCCCCCCCCC[C@@H]1C[C@@H](O)[C@H](O)CO1 [Compound 21]", "> 100 µM"),
    ("CCCCCCCCCCCCO[C@@H]1C[C@@H](O)[C@H](O)[C@@H](CO)O1 [Compound 13]", "100 µM"),
    ("CCCCCCCCCCCC[C@H]1C[C@H](O)[C@@H](O)[C@H](C)O1 [Compound 3]", "> 100 µM"),
    ("CCCCCCCCCCCCO[C@H]1C[C@H](O)[C@H](O)[C@H](C)O1 [Compound 4]", "100 µM"),
    ("CCCCCCCCCCCCS[C@H]1C[C@H](O)[C@@H](O)[C@H](C)O1 [Compound 2]", "> 50 µM"),
    ("CCCCCCCCCCCCO[C@H]1C[C@H](O)[C@@H](O)[C@H](C)O1 [Compound 1]", "100 µM"),
    ("CCCCCCCCCCCCO[C@H]1C[C@@H](O)[C@H](O)CO1 [Compound 18]", "> 100 µM"),
    ("CCCCCCCCCCCCO[C@H]1C[C@H](O)[C@@H](O)CO1 [Compound 7]", "> 100 µM"),
    ("CCCCCCCCCCCCO[C@@H]1C[C@@H](O)[C@H](O)[C@@H](C)O1 [Compound 9]", "100 µM"),
    ("CCCCCCCCCCCCO[C@@H]1C[C@@H](O)[C@H](O)CO1 [Compound 17]", "> 100 µM"),
]

Kindly review the next molecule as well.
Form field: reported IC50 at 24 h of CCCCCCCCCCCC[C@@H]1C[C@@H](O)[C@H](O)[C@@H](C)O1 [Compound 10]
> 100 µM
